Provenance of the data: PubChem BioAssay (NCI)

Tested on: MDA-MB-468 breast
Assay: NCI-60 one-dose screen, 48 h
Conditions: 10 µM unless noted
The panel holds about 83,000 compounds, 20% with a hit somewhere; the sample as a whole holds those more often. Activity calls are given as the source filed them. Rule for the calls: active = growth percent below 10; inactive = the rest.
A correct response names exactly one class from active, inactive

Q) Fill in: this test's call for `Cc1ccc(Cl)cc1NC(=O)c1sc2nc3c(cc2c1N)C(=O)CCC3` is ___
A) active

Q) Fill in: this test's call for `COc1cc(Cn2ccc3c2-c2oncc2CC3)cc(OC)c1` is ___
A) inactive

Q) Fill in: this test's call for `CC(=O)c1cccc(NS(=O)(=O)c2cccc(C(=O)Nc3ccc(Br)cc3)c2)c1` is ___
A) active

Q) Fill in: this test's call for `Cc1cc(C(C)(CC(C)C)c2ccc(O)c(C)c2)ccc1O` is ___
A) inactive

Q) Fill in: this test's call for `COC(=O)C1=C(C(=O)ON)[C@@H]2C=C[C@@]1([C@@H](Cc1ccccc1)Nc1ccccc1)O2` is ___
A) active

Q) Fill in: this test's call for `CC1(C)CC[C@]2(C(N)=O)CC[C@]3(C)C(=CC[C@@H]4[C@@]5(C)C/C(=C/c6cccnc6)C(=O)C(C)(C)[C@@H]5CC[C@]43C)[C@@H]2C1` is ___
A) active

Q) Fill in: this test's call for `O=C(c1ccc(OCCN2CCCCC2)cc1)c1c(-c2ccc(O)cc2)sc2cc(O)ccc12` is ___
A) inactive

Q) Fill in: this test's call for `CCNCCCn1c2c(c3ccc([N+](=O)[O-])cc3c1=O)C(=O)c1cc(OC)cnc1-2` is ___
A) active

Q) Fill in: this test's call for `CCCCCCCCCCCC[n+]1ccc(C(N)=O)cc1` is ___
A) active

Q) Fill in: this test's call for `CC1(C)[C@H](O)CC[C@]2(C)[C@@H]1CC[C@@]13C[C@@H](CC[C@H]12)[C@@](O)(CO)C3` is ___
A) inactive

Q) Fill in: this test's call for `O=C(c1cccc(N2CCOCC2)n1)c1c[nH]c2ccccc12` is ___
A) inactive

Q) Fill in: this test's call for O=C(CC(C(=O)c1ccccc1)N1CCN(Cc2ccccc2)CC1)c1ccccc1 (stereo unspecified) is ___
A) inactive

Q) Fill in: this test's call for CN(C)C(CNc1oc(-c2cccc3ccccc23)nc1C#N)c1ccco1 (stereo unspecified) is ___
A) inactive

Q) Fill in: this test's call for `Nc1nc(N(Cc2ccccc2)c2ccccc2)c2cn[nH]c2n1` is ___
A) inactive

Q) Fill in: this test's call for `CCn1c(SCC(=O)c2ccc(Br)cc2)nnc1-c1ccncc1` is ___
A) inactive

Q) Fill in: this test's call for C#CC[C@@H]1C[C@]2(C)[C@H]3CC[C@@H]4[C@H]5C(C(=C)C)CC[C@]5(C(=O)NCCN(CCN)CCN)CC[C@@]4(C)[C@]3(C)CC[C@H]2C(C)(C)[C@H]1OC(C)=O (stereo partly specified) is ___
A) active

Q) Fill in: this test's call for `C/C(Cc1ccc(Cl)cc1)=C(\c1ccc(OCCN2CCCCCC2)cc1)c1ccc(OC(=O)c2ccccc2)cc1` is ___
A) inactive

Q) Fill in: this test's call for `CCN(C(=O)c1cc2ncccc2[nH]1)[C@H]1CCC[C@@H](NCc2cccc(F)c2)C1` is ___
A) inactive

Q) Fill in: this test's call for `Cc1ccc(C)n1-c1ccccc1-n1c(C)ccc1C` is ___
A) inactive

Q) Fill in: this test's call for `COc1cc(-c2nn(-c3ccc(NC(=O)Nc4cc(C(F)(F)F)cc(C(F)(F)F)c4)cc3)cc2-c2ccncc2)ccc1Cl` is ___
A) active

Q) Fill in: this test's call for `Cc1nc2cc(-n3c(-c4ccc(F)cc4)nc4ccccc4c3=O)ccc2n1Cc1ccccc1` is ___
A) inactive

Q) Fill in: this test's call for CC[C@H](C)[C@@H]1NC(=O)[C@H]([C@@H](C)O)NC(=O)C(Cc2ccccc2)NC(=O)[C@@H]2CCCN2C(=O)C(C(C)C)NC(=O)C(Cc2ccccc2)NC(=O)CNC(=O)[C@@H]2CCCN2C1=O (stereo partly specified) is ___
A) inactive

Q) Fill in: this test's call for `Cc1cc(Br)c(C)cc1Br` is ___
A) inactive

Q) Fill in: this test's call for `O=C1C=CC(=O)N1c1ccc2c(c1)Cc1cc(F)ccc1-2` is ___
A) inactive

Q) Fill in: this test's call for `Cc1cc(NCc2cc(Nc3ccnc4cc(Cl)ccc34)ccc2F)nc(N2CCSCC2)n1` is ___
A) active

Q) Fill in: this test's call for `CC/C(=C(\c1ccc(O)cc1)c1ccc(OCCN(C)CCN(C)C(=O)CCCCC(=O)c2c(C)[nH]c(/C=C3\N=C(c4ccc[nH]4)C=C3OC)c2C)cc1)c1ccccc1` is ___
A) inactive

Q) Fill in: this test's call for `Cc1cc(Cl)ccc1Nc1nc(C(F)(F)F)ccc1C(=O)N/N=C/c1ccccc1Cl` is ___
A) active

Q) Fill in: this test's call for `O=C(Nc1ccccc1C(=O)N/N=C(\c1ccccc1)c1ccccn1)c1ccc(F)cc1` is ___
A) active

Q) Fill in: this test's call for `C=CC(=O)Nc1ccc(Oc2nccc(Nc3nnc(-c4ccc(C)cc4)s3)n2)cc1` is ___
A) inactive

Q) Fill in: this test's call for `Cc1cc(N2CCOCC2)nc(N2CCOCC2)n1` is ___
A) inactive

Q) Fill in: this test's call for `COc1cc(OC)c(/C=C/S(=O)(=O)Cc2ccc(OC)c(NCC(=O)NO)c2)c(OC)c1` is ___
A) inactive
